Reported log10 of solubility kinetic values are given for each entry in this list.
settings: buffer; pH 7.4; 200.0 µM
Use the decimal logarithm of solubility kinetic (µg/mL).

Use the examples below as a reference point.
molecule | assay_metric | numeric_result
CN(Cc1cnccn1)Cc1nc(Cc2cccc(F)c2)no1 | log10 of solubility kinetic | 1.67
Cc1nc(N/C(N)=N/S(=O)(=O)c2ccccc2)nc2ccccc12 | log10 of solubility kinetic | 0.56
Cc1ccc2c(c1)/C(=C/c1ccccc1)C(=O)N2 | log10 of solubility kinetic | 0.36
Clc1ccc(CN2CCSCC2)c(Cl)c1 | log10 of solubility kinetic | -0.05
Cc1ccccc1Cn1c(C)nc2ccc([N+](=O)[O-])cc2c1=O | log10 of solubility kinetic | 0.84
C=CCOc1c(Br)cc(/C=C2/C(=O)ON=C2C)cc1OC | log10 of solubility kinetic | 1.65
Cc1onc(-c2ccccc2)c1-c1csc(COc2ccccc2)n1 | log10 of solubility kinetic | 0.34
CCc1sc(C(=O)Nc2ccc(N3CCOCC3)cc2)cc1C | log10 of solubility kinetic | 0.91

Value of log10 of solubility kinetic reported for the molecule NC(=O)CCN1CCC(c2nc3ccccc3s2)CC1 is 1.55

Value of log10 of solubility kinetic reported for the molecule Cc1cccc(NC(=O)C(C)SCc2ccccc2)c1 (stereo not drawn) is 1.45

Value of log10 of solubility kinetic reported for the molecule Cc1cc(C(=O)NCCc2ccc(Cl)cc2)c(C)o1 is 1.49

Value of log10 of solubility kinetic reported for the molecule CCC1C(=O)NCCN1Cc1nc(-c2ccc(C)s2)oc1C (stereo not drawn) is 1.59

Value of log10 of solubility kinetic reported for the molecule N#Cc1ccsc1NC(=O)CCS(=O)(=O)c1ccccc1 is 1.62

Value of log10 of solubility kinetic reported for the molecule CC(C)N(C(=O)CSc1nc2ccccc2c(=O)[nH]1)C(C)C is 1.67

Value of log10 of solubility kinetic reported for the molecule Cc1c(C(=O)N2CCC[C@H]2C(N)=O)oc2c(F)cccc12 is 1.58

----------
details: buffer; pH 7.4; 200.0 µM
assay_metric: solubility kinetic (µg/mL)
Express your answer in µg/mL, writing the number without its unit.

Use the examples below as a reference point.
compound | unit_of_measure | solubility kinetic
Cc1ccc(S(=O)(=O)N2CCOCC2)cc1NC(=O)COC(=O)c1ccc(Br)cc1 | µg/mL | 5.3
CSc1ccccc1NC(=O)CN(C)CC(=O)c1[nH]c(C)c(C(C)=O)c1C | µg/mL | 6.7
Cc1cc(C=NCCO)c(C)n1-c1cc(Cl)ccc1Cl | µg/mL | 29.2
Cc1ccc(/C(O)=C/c2nc3cc(C)ccc3oc2=O)cc1 | µg/mL | 12

Value of solubility kinetic reported for the compound O=C(Nc1ccccc1Oc1ccccc1)C1=COCCO1 is 34.3

Value of solubility kinetic reported for the compound COc1cc(OC)cc(C(=O)NCCSCc2ccc(Cl)cc2)c1 is 5.2

----------
Reported solubility kinetic values are given for each entry in this list.
conditions: buffer; pH 7.4; 200.0 µM
Express your answer in mg/mL, writing the number without its unit.

record_smiles | unit_of_measure | solubility kinetic
CC(=O)c1sc2nsc(SCCN3CCCC3)c2c1N | mg/mL | 0.0467

Value of solubility kinetic reported for the compound O=C(OCC(=O)N1CCCC1)c1c(Cl)cccc1Cl is 0.0396

Value of solubility kinetic reported for the compound O=C(Nc1ccc(F)cc1)Nc1cnccn1 is 0.0279

Value of solubility kinetic reported for the compound CCOc1ccc(Cc2onc3c2C(=O)CCC3)cc1OCC is 0.0454

Value of solubility kinetic reported for the compound Cc1ccc(C(=O)NCC(=O)N2CCN(c3ccccc3)CC2)cc1 is 0.0044
